Reference source for all entries: the supplement of paper PMC10037445

- System: RAW-Dual
- MEASUREMENT_DESCRIPTION: NF-kB SEAP reporter activity, fold change vs agonist alone; cytotoxicity flag (confluency mask): not cytotoxic; higher = enhanced NF-kB activity
- EXPERIMENTAL_CONDITIONS: agonist: Pam3CSK4 (TLR2/1) 0.1 ug/mL
Over roughly 2,900 compounds, “NF-kB SEAP reporter activity, fold change vs agonist alone” has its median near 0.99; the highest 2% begin near 2.6. What follows is part of a selection rich in the highest values, with near analogues and random picks from the rest.
PARAMETER_MEASURED: NF-kB SEAP reporter activity

Name the recorded NF-kB SEAP reporter activity of the compound listed here: COc1ccccc1S(=O)(=O)Nc1ccc2c(c1)CN(C)C(=O)N2 (library stock concentration (final ~1000-fold dilution): 10 mM)
1.4

State its NF-kB SEAP reporter activity for this compound: O=C(O)CC[C@@H](O)C(=O)O (library stock concentration (final ~1000-fold dilution): 10 mM water)
1.12

Return reported NF-kB SEAP reporter activity. Input compound: COc1ccccc1N1CCN(CCCNc2cc(=O)n(C)c(=O)n2C)CC1.Cl (library stock concentration (final ~1000-fold dilution): 10 mM)
1.17

Please report the measured NF-kB SEAP reporter activity for Nc1ccc(C(=O)Nc2cccc(-c3nc(N4CCOCC4)c4oc5ncccc5c4n3)c2)cn1 (library stock concentration (final ~1000-fold dilution): 10 mM)
0.805

Answer with reported NF-kB SEAP reporter activity of Cl.O=C1CN2Cc3c(ccc(Cl)c3Cl)NC2=N1 (library stock concentration (final ~1000-fold dilution): 10 mM)
1.01

Name the recorded NF-kB SEAP reporter activity of the compound listed here: COc1ccc(S(=O)(=O)N(C(C)=O)c2ccccc2/C=C/c2cc[n+]([O-])cc2)cc1 (library stock concentration (final ~1000-fold dilution): 10 mM)
1.43

Could you please provide reported NF-kB SEAP reporter activity for Cl.N=c1ccn2c(n1)OC1C(O)C(CO)OC12 (stereo unspecified) (library stock concentration (final ~1000-fold dilution): 10 mM) ? Thanks!
1.83

Given CC(C(=O)O)c1ccc(C(=O)c2cccs2)cc1 (stereo unspecified) (library stock concentration (final ~1000-fold dilution): 10 mM) , respond with its NF-kB SEAP reporter activity.
1.07

New cases:
Quick one: give measured NF-kB SEAP reporter activity for COc1cc2c(cc1NS(=O)(=O)c1ccc(Br)cc1C)n(C)c(=O)n2C (library stock concentration (final ~1000-fold dilution): 10 mM)
1.08

Recall and state the measured NF-kB SEAP reporter activity for Cc1ccc(NC(=O)c2ccnc(C(F)(F)F)c2)cc1-c1cc(OCCO)nc(N2CCOCC2)c1 (library stock concentration (final ~1000-fold dilution): 10 mM) .
0.438

Quote NF-kB SEAP reporter activity reported for CCn1c(-c2nonc2N)nc2cnc(Oc3cccc(NC(=O)c4ccc(OCCN5CCOCC5)cc4)c3)cc21.Cl (library stock concentration (final ~1000-fold dilution): 10 mM) please.
1.56
